# MEASURED_ON: Trk A (Homo sapiens)
# Sequence (P04629 33-796): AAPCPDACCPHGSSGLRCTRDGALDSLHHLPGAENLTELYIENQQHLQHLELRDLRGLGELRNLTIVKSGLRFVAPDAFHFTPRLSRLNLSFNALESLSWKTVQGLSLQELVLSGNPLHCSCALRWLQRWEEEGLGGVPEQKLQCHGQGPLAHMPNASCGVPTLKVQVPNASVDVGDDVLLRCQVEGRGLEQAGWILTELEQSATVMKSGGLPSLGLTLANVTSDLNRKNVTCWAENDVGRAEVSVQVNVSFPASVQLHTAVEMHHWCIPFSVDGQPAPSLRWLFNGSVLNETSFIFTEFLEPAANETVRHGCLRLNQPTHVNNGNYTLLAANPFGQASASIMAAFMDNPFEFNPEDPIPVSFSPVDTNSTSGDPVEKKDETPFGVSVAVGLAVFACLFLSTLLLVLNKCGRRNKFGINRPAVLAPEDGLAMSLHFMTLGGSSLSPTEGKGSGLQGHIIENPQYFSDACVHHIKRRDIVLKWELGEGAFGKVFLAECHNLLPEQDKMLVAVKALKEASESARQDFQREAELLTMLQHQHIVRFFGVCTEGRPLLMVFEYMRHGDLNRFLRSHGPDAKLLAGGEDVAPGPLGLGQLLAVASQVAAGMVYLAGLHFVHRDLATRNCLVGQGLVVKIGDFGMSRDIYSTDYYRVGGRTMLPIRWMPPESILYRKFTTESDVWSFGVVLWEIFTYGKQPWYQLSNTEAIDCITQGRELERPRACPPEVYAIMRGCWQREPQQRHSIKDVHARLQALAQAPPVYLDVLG
# TEST_PROTOCOL: HotSpot kinase assay against Trk A
# Assay type: biochemical
# CONDITION_CONTEXT: HotSpot 33P assay, ATP 10 μM-30 μM
In plain terms, low IC50, meaning strictly below 100 nM, gives Condition met, and everything else gives Condition not met.

Some solved entries appear below for comparison.
{"columns": ["COMPOUND", "MEASURED_ON", "ANSWER_LABEL"],
 "data": [
  ["CN1CCN(C(=O)[C@@H]2CCCN2c2nc3c(c(Nc4cc(C5CCCC5)n[nH]4)n2)CCC3)CC1=O [136b]", "Trk A (Homo sapiens)", "Condition not met"],
  ["CC(C)c1cc(Nc2nc(N3CCC[C@H]3C(=O)N3CC(F)(F)C(F)(F)C3)nc3c2CCC3)n[nH]1 [112b]", "Trk A (Homo sapiens)", "Condition not met"],
  ["CC(C)c1cc(Nc2nc(N3CCC[C@@H]3C(=O)N3CCCC3)nc3c2CCC3)n[nH]1 [138a]", "Trk A (Homo sapiens)", "Condition not met"],
  ["CN1CCN(C(=O)[C@H]2CCCN2c2nc3c(c(Nc4cc(C5CCCC5)[nH]n4)n2)CCC3)CC1 [134a]", "Trk A (Homo sapiens)", "Condition met"],
  ["O=C(Nc1nccs1)[C@@H]1CCCN1c1nc2c(c(Nc3cc(C4CCCC4)[nH]n3)n1)CCC2 [133b]", "Trk A (Homo sapiens)", "Condition met"]
]}

Now for another entry.
Report whether reported IC50 is lower than 100 nM (strictly) for CC(C)c1cc(Nc2nc(N3CCC[C@H]3C(=O)N3CCCC3)nc3c2CCC3)n[nH]1 [138b] Condition not met

---

# MEASURED_ON: activated IGF-1R (Homo sapiens)
# Construct: purchased Millipore 14-802
# Sequence (P08069 31-1367): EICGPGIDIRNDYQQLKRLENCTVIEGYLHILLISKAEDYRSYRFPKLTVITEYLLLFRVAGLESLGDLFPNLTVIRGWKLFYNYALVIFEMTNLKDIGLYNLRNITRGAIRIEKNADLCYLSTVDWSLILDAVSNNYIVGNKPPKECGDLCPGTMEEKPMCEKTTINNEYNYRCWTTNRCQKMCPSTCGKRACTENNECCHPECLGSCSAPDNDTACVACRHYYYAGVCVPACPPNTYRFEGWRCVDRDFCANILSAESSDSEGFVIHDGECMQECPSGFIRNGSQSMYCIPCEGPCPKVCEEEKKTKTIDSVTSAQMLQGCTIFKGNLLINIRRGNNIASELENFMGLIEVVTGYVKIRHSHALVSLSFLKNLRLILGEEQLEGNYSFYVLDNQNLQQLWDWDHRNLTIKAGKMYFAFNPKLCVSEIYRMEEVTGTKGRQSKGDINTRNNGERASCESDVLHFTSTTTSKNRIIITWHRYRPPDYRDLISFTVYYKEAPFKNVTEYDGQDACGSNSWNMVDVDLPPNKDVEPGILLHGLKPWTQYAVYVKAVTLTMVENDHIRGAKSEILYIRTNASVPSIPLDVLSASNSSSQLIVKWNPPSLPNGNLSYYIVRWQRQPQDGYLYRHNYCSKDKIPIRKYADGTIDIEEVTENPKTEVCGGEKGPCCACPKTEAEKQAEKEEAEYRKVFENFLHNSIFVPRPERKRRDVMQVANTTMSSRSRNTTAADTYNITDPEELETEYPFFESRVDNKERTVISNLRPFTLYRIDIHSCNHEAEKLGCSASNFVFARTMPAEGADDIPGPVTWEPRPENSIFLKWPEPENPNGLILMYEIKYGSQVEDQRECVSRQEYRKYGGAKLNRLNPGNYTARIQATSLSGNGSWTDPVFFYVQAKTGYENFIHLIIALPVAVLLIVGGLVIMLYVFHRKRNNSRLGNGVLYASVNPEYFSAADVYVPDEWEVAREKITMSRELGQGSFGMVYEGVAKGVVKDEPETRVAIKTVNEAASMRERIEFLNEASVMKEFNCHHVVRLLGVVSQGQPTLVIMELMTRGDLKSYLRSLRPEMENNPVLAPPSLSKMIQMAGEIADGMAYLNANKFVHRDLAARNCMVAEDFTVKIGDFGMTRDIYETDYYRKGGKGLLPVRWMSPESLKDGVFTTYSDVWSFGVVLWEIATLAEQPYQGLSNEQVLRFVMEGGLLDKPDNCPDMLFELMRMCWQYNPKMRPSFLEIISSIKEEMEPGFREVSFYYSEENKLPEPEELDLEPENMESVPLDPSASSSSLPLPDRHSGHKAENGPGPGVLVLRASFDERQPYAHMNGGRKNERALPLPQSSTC
# TEST_PROTOCOL: In vitro IGF-1R enzymatic assay (ADP-Glo)
# Assay type: biochemical
# CONDITION_CONTEXT: compound 1 μM, ATP 100 μM
Quick reference for inhibition at 1 µM among some compounds
Respond with the bare value in %.

{"columns": ["COMPOUND", "inhibition at 1 µM / %"],
 "data": [
  ["CN(C)C(=O)[C@@H]1CCCN1c1nc2c(c(Nc3cc(C4CCOCC4)[nH]n3)n1)CCC2 [91b]", 0],
  ["CC1(C)CCN(C(=O)[C@@H]2CCCN2c2nc3c(c(Nc4cc(C5CCCC5)n[nH]4)n2)CCC3)CC1 [135b]", 12],
  ["O=C(Nc1nccs1)[C@@H]1CCCN1c1nc2c(c(Nc3cc(C4CCCC4)[nH]n3)n1)CCC2 [133b]", 95],
  ["CN(C)C(=O)[C@H]1CCCN1c1nc2c(c(Nc3cc(C4CCOCC4)[nH]n3)n1)CCC2 [91a]", 6]
]}

Look at this compound and give its reported inhibition at 1 µM. CN1CCN(C(=O)[C@H]2CCCN2c2nc3c(c(Nc4cc(C5CCCC5)[nH]n4)n2)CCC3)CC1 [134a] 73

---

# MEASURED_ON: FLT3 (ITD) (Homo sapiens, UniProt P36888)
# Sequence (P36888 1-993): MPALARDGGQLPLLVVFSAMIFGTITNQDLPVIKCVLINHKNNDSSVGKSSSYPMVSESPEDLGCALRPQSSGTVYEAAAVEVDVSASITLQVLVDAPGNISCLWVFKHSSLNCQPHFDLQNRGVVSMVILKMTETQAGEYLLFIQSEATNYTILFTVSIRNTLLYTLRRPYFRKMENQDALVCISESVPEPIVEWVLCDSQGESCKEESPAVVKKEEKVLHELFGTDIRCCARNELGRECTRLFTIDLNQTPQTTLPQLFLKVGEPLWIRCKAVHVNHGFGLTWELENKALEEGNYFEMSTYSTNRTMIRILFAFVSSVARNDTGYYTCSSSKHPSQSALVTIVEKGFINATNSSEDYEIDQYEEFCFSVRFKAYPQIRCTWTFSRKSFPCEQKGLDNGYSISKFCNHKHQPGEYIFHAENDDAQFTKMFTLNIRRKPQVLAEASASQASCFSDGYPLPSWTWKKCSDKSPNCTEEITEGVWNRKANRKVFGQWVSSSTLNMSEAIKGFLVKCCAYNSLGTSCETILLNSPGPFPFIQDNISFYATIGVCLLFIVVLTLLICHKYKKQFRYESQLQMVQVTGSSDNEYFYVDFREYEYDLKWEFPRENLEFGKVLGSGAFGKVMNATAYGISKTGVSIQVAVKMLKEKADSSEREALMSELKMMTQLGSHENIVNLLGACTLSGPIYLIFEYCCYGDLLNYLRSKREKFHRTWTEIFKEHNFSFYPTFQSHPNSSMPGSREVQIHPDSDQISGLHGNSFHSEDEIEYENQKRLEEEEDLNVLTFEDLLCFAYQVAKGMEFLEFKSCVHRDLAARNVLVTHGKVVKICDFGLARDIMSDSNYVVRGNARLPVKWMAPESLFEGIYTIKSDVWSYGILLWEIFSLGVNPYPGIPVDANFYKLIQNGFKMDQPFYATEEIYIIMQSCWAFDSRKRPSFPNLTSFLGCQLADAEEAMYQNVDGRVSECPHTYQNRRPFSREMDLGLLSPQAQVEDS
# TEST_PROTOCOL: HotSpot kinase assay against FLT3 (ITD)
# CONDITION_CONTEXT: HotSpot 33P assay, ATP 10 μM
# Protocol: Kinase assays were performed using test compounds against a panel of FLT3 kinases: FLT3; FLT3 (D835Y); and FLT3 (ITD). Compounds were prepared as 10 mM stock solutions in DMSO prior to use in the assay. Each compound was tested at 10 concentrations with three-fold serial dilution starting at 1 μM against the three kinases. […] The percent of enzyme inhibition was calculated based on the percent of remaining kinase activity. IC50 values were determined.
METRIC_NAME: IC50

// below: answered compounds
{"columns": ["COMPOUND", "METRIC_NAME", "READING"],
 "data": [
  ["CC(C)(C)c1cc(Nc2nc(N3CCC[C@@H]3C(=O)N3CCC(F)(F)CC3)nc3c2CCC3)n[nH]1 [142a]", "IC50", "> 1000 nM"],
  ["CC(C)(C)c1cc(Nc2nc(N3CCC[C@H]3C(=O)N3CCC(F)(F)CC3)nc3c2CCC3)n[nH]1 [142b]", "IC50", "> 1000 nM"]
]}

Okay, next one:
Would you kindly share the measured IC50 for CCN(C(=O)[C@@H]1CCCN1c1nc2c(c(Nc3cc(C(C)(C)C)[nH]n3)n1)CCC2)c1nccs1 [144b] ? > 1000 nM
